assay_system: PI3Kδ (Homo sapiens)
Construct: The protein is full length and co-expressed with untagged PIK3R1; GST; purchased Invitrogen PV5274
Sequence (O00329 whole entry): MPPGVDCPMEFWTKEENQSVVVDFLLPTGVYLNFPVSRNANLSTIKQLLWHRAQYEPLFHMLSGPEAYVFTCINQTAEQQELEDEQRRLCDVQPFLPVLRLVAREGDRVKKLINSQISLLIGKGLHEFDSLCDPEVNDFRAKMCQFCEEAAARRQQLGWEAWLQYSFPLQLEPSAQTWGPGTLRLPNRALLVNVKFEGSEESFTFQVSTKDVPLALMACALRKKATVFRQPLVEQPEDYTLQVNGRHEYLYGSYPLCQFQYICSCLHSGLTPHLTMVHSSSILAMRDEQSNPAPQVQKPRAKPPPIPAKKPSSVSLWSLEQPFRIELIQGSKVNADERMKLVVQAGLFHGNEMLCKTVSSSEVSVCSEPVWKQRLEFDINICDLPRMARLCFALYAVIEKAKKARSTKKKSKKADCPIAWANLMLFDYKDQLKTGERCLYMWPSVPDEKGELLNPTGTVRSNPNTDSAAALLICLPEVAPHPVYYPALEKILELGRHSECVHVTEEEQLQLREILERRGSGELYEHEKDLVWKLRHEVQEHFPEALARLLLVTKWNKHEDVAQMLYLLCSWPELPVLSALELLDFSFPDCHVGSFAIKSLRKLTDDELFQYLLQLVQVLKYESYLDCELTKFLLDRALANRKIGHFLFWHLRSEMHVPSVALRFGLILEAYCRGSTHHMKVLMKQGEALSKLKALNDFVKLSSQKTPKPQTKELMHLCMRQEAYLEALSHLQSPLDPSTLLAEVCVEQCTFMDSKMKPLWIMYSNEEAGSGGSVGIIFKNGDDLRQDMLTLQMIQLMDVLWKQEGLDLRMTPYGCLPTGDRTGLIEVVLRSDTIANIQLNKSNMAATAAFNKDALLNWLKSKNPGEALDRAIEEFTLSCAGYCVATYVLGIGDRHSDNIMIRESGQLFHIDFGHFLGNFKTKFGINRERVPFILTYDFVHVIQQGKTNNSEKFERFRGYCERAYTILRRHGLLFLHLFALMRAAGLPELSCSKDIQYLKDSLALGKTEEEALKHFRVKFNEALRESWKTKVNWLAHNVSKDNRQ
Sequence (P27986 whole entry partner): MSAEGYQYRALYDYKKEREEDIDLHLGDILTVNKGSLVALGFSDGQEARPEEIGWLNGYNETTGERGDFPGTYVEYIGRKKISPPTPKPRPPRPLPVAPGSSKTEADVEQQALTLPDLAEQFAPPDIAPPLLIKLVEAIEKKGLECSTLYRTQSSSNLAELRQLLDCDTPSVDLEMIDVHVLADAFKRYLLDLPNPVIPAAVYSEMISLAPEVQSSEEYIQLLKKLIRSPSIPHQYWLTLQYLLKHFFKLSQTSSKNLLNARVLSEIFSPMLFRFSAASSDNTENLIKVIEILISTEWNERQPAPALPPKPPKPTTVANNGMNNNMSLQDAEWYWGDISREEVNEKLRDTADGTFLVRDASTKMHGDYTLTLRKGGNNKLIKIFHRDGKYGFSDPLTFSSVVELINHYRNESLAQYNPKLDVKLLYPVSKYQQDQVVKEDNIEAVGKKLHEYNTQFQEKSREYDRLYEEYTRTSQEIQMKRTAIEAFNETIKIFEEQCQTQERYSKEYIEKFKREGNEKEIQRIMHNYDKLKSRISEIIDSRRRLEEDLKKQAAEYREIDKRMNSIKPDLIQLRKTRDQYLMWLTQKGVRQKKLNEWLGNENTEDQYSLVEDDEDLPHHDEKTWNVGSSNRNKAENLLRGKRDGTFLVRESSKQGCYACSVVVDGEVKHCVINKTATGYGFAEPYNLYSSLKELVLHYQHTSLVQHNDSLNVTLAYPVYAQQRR
assay_procedure: PI3Kδ inhibition, modified PIK3CD Adapta TR-FRET assay
Format: biochemical
particulars: recombinant GST-tagged full length PIK3CD co-expressed with PIK3R1 (p85α); 2 μM ATP, 50 μM PIP2; read-out: PI3Kδ Inhibition (pIC50) (converted)
Assignment: determine reported log10 IC50 for the given molecules.
Reminder: these figures are log10 of reported IC50, in nM before transformation.

Quick check: log10 IC50 of c1ccc(N2CC3COCCN3c3nc(-c4cccc5[nH]ccc45)ncc32)cc1 (centres unmarked) [Example 181] ?
1.90

Quick check: log10 IC50 of O=C1Nc2cnc(-c3cccc4c3OCO4)nc2N2CCOCC12 (centres unmarked) [Example 151] ?
3.70

Quick check: log10 IC50 of Cc1ccc(C(N)=O)c(CN2CC3COCCN3c3nc(-c4cccc5[nH]ccc45)ncc32)c1 (centres unmarked) [Example 228] ?
2.20

Quick check: log10 IC50 of CS(=O)(=O)c1ccc(CN2C(=O)C3COCCN3c3nc(-c4ccc5cc[nH]c5c4)ncc32)cc1 (centres unmarked) [Example 100] ?
3.60

Quick check: log10 IC50 of CS(=O)(=O)c1ccc(CN2C(=O)C3COCCN3c3nc(-c4cccc(S(N)(=O)=O)c4)ncc32)cc1 (centres unmarked) [Example 115] ?
2.80

Quick check: log10 IC50 of CS(=O)(=O)c1ccc(CN2CC3COCCN3c3nc(-c4cnc5[nH]ccc5c4)ncc32)cc1 (centres unmarked) [Example 25] ?
2.20

Quick check: log10 IC50 of c1cc(-c2ncc3c(n2)N2CCOCC2CN3Cc2nnnn2C2CC2)c2cc[nH]c2c1 (centres unmarked) [Example 36] ?
2.10

Quick check: log10 IC50 of N#Cc1ccc(F)c(CN2CC3COCCN3c3nc(-c4cccc5[nH]ccc45)ncc32)c1 (centres unmarked) [Example 60] ?
1.50
